All values here come from patent EP4585599A1.

# Procedure Summary: Solubility assay
# Test Parameters: phosphate buffer, pH 7.4, aqueous buffer, kinetic from dmso stock
Readout: solubility at 2 h (µM)

COc1cnc(C(F)F)cc1-c1cc(C)ncc1C(=O)Nc1nc2cnc(-c3c(C)noc3C)cc2s1: 58.7
COc1cnc(Cl)cc1-c1cc(C)ncc1C(=O)Nc1nc2ncc(N3CCC(O)CC3)nc2s1: 70.6
COc1cnc(Cl)cc1-c1cc(C)ncc1C(=O)Nc1nc2cnc(C3=CCC(O)CC3)cc2s1 (centres unmarked): 76.4
COc1cnc(Cl)cc1-c1cc(C)ncc1C(=O)Nc1nc2cnc(-c3c(C)cnn3C)cc2s1: 79.7
COc1cnc(Cl)cc1-c1cc(C)ncc1C(=O)Nc1nc2ccc(N3CCC(O)CC3)nc2s1: 61.5

[P] COc1cnc(Cl)cc1-c1cc(C)ncc1C(=O)Nc1nc2cnc(-c3c(C)nnn3C)c(F)c2s1
[Q] COc1ccc(Cl)cc1-c1cc(C)ncc1C(=O)Nc1nc2ncc(-c3ccc(C#N)cc3)nc2s1 [Comparative Example 1, reference compound]
[R] COc1cnc(Cl)cc1-c1cc(C)ncc1C(=O)Nc1nc2cnc(-c3c(C)nnn3C)cc2s1
Given 3 compounds, produce a descending ranking by solubility at 2 h. Answer format: the labels, ordered as requested. P, R, Q
(P: 61.8 µM, R: 4.61 µM, Q: 2.35 µM)

###

# Target Desc: helicase domain of the Pol θ protein (Homo sapiens, UniProt O75417)
# Construct: The helicase domain of the Pol θ protein was purified from insect protein expression system; made in house; host or cells: insect protein expression system
# Sequence (O75417 102-554 limits assumed): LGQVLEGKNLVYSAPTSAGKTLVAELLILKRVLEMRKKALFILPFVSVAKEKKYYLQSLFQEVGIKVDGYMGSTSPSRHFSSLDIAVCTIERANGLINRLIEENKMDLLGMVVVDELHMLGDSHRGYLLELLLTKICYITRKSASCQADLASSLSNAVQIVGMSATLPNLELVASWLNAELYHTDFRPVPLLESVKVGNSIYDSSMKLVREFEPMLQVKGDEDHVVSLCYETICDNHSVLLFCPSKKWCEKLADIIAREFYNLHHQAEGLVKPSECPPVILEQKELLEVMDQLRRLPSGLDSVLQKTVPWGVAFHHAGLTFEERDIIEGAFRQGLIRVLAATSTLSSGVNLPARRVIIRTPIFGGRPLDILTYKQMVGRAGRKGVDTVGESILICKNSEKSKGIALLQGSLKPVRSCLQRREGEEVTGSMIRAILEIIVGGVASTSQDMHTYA
# Procedure Summary: Biochemical Activity Assay (ADP Glo Assay) of Pol θ inhibitor, ATPase activity
# Test Parameters: ADP-Glo assay, ATPase activity of Pol θ helicase domain, ssDNA substrate; read-out: Biochemical assay IC50
Readout: IC50 (nM)

COc1cnc(Cl)cc1-c1cc(C)ncc1C(=O)Nc1nc2ncc(-c3ccc(P(C)(C)=O)cc3)cc2s1: 2.51
COc1cnc(Cl)cc1-c1cc(C)ncc1C(=O)Nc1nc2ncc(C3=CC(O)CC3)cc2s1 (stereo not drawn): 3.35
COc1cnc(Cl)cc1-c1cc(C)ncc1C(=O)Nc1nc2ccc(N3CCc4ccccc43)nc2s1: 149
COc1cnc(Cl)cc1-c1cc(C)ncc1C(=O)Nc1nc2c(F)nc(N3CCC(O)CC3)cc2s1: 10.5
COc1cnc(Cl)cc1-c1cc(C)ncc1C(=O)Nc1nc2ncc(-n3ccccc3=O)cc2s1: 3.94

[1] COc1cnc(Cl)cc1-c1cc(C)ncc1C(=O)Nc1nc2ncc(N3CCC(N(C)C)CC3)cc2s1
[2] COc1cnc(Cl)cc1-c1cc(C(F)(F)F)ncc1C(=O)Nc1nc2ccc(N3CCC(O)CC3)nc2s1
[3] COc1cnc(Cl)cc1-c1cc(C)ncc1C(=O)Nc1nc2ccc(N3CC[C@@H](O)C[C@H]3C)nc2s1
[4] COc1cnc(Cl)cc1-c1cc(C)ncc1C(=O)Nc1nc2ncc(CN3CCC(O)CC3)cc2s1
[5] COc1cnc(Cl)c(F)c1-c1cc(C)ncc1C(=O)Nc1nc2cc(F)c(N3CCC(F)(F)CC3)nc2s1
Please order the records by their reported IC50, lowest number first. Answer by listing the labels in the order asked for. 1, 3, 5, 4, 2

###

# Target Desc: helicase domain of the Pol θ protein (Homo sapiens, UniProt O75417)
# Construct: The helicase domain of the Pol θ protein was purified from insect protein expression system; made in house; host or cells: insect protein expression system
# Procedure Summary: Biochemical Activity Assay (ADP Glo Assay) of Pol θ inhibitor, ATPase activity
# Test Parameters: ADP-Glo, ssDNA substrate, 60 min at room temperature; read-out: Biochemical assay IC50
Readout: IC50

Sample answers from the record:
COc1cnc(Cl)cc1-c1cc(C)ncc1C(=O)Nc1nc2ccc(C3=CCC(O)CC3)c(C#N)c2s1 (centres unmarked) [Example 22]: 50 to 200 nM
COc1cnc(Cl)cc1-c1cc(C)ncc1C(=O)Nc1nc2ncc(C(C)(C)O)cc2s1 [Example 95]: < 50 nM

Output measured IC50 for this item: COc1cnc(Cl)cc1-c1cc(C)ncc1C(=O)Nc1nc2ncc(-c3ccc(P(C)(C)=O)cc3)cc2s1 [Example 75] < 50 nM

Name the recorded IC50 of the item COc1cnc(Cl)cc1-c1cc(C)ncc1C(=O)Nc1nc2ncc(CC(C)(C)O)cc2s1 [Example 93] in your answer. < 50 nM
